Tested on: MM1.S
assayNotes: Cytotoxicity against human MM1.S cells assessed as cell survival at 30 uM incubated for 48 hrs by Cell Titer-Glo luminescent assay relative to control
Type: functional
assayContext: read-out: Survival
Give viability at 30 µM for every item shown.
Include the unit right after the number.

Consider the worked cases shown below.
# molecule, reportedResult
records = [
    ("O=C1CCC2(CC(c3ccccc3I)=NO2)C(=O)N1 (stereo unspecified)", "69.3%"),
    ("O=C1CCC2(CC(c3c(Cl)cccc3Cl)=NO2)C(=O)N1 (stereo unspecified)", "39.5%"),
    ("O=C1CCC2(CC(c3ccccc3F)=NO2)C(=O)N1 (stereo unspecified)", "76.5%"),
    ("O=C1CCC2(CC(C3CCCCC3)=NO2)C(=O)N1 (stereo unspecified)", "100%"),
    ("CCC(CC)C1=NOC2(CCC(=O)NC2=O)C1 (stereo unspecified)", "89.1%"),
]

Continue with the molecule presented below.
Prompt: Give its viability at 30 µM value. Item: O=C1CCC2(CC(c3ccccc3Cl)=NO2)C(=O)N1 (stereo unspecified)
Completion: 43.3%

* * *

Give half-life at 10 µM for every item shown.
assayNotes: Stability in human plasma assessed as half-life at 10 uM incubated upto 480 mins by HPLC analysis
Format: ADME, cell-free
Include the unit right after the number.

# compound, half-life at 10 µM
data = [
    ("O=C1CCC2(CC(c3ccccc3Cl)=NO2)C(=O)N1 (configuration not stated)", "4.97 h"),
]

Continue with the compound presented below.
Prompt: Give its half-life at 10 µM value. Item: Nc1cccc2c1C(=O)N(C1CCC(=O)NC1=O)C2=O (configuration not stated) [POMALIDOMIDE]
Completion: 3.03 h

* * *

Give viability at 30 µM for every item shown.
Test system: MOLP-8
assayNotes: Cytotoxicity against human MOLP8 cells assessed as cell survival at 30 uM incubated for 48 hrs by Cell Titer-Glo luminescent assay relative to control
Assay type: functional
assayContext: read-out: Survival
Give bare numbers, in %.

# molecule, measuredQuantity, reportedResult
records = [
    ("CC(C)(C)C1=NOC2(CCC(=O)NC2=O)C1 (stereo not given)", "viability at 30 µM", 100),
    ("CCC(CC)C1=NOC2(CCC(=O)NC2=O)C1 (stereo not given)", "viability at 30 µM", 94.1),
    ("COc1ccccc1C1=NOC2(CCC(=O)NC2=O)C1 (stereo not given)", "viability at 30 µM", 79.3),
]

Batch request: viability at 30 µM per item, same order as input.
1. O=C1CCC2(CC(c3ccccc3Br)=NO2)C(=O)N1 (stereo not given)
2. O=C1CCC2(CC(c3ccc(Cl)cc3Cl)=NO2)C(=O)N1 (stereo not given)

Completion:
[100, 100]

* * *

Test system: KMS-12-PE
assayNotes: Cytotoxicity against human KMS-12-PE cells assessed as cell survival at 30 uM incubated for 48 hrs by Cell Titer-Glo luminescent assay relative to control
Format: functional
assayContext: read-out: Survival
measuredQuantity: viability at 30 µM (%)
Answers are plain numbers, in %.

Consider the worked cases shown below.
# compound, reportedResult
measured = [
    ("O=C1CCC2(CC(C3CCCC3)=NO2)C(=O)N1 (configuration not stated)", 92),
    ("CCC(CC)C1=NOC2(CCC(=O)NC2=O)C1 (configuration not stated)", 98.9),
    ("CCCC1=NOC2(CCC(=O)NC2=O)C1 (configuration not stated)", 100),
    ("COc1ccc(C2=NOC3(CCC(=O)NC3=O)C2)c(OC)c1OC (configuration not stated)", 72.2),
    ("O=C1CCC2(CC(C3CCCCC3)=NO2)C(=O)N1 (configuration not stated)", 100),
]

Batch request: viability at 30 µM per item, same order as input.
1. O=C1CCC2(CC(c3ccc(C(=O)O)cc3)=NO2)C(=O)N1 (configuration not stated)
2. O=C1CCC2(CC(c3ccc(Cl)cc3Cl)=NO2)C(=O)N1 (configuration not stated)
3. O=C1CCC2(CC(c3c(Cl)cccc3Cl)=NO2)C(=O)N1 (configuration not stated)
4. O=C1CCC2(CC(c3ccccc3I)=NO2)C(=O)N1 (configuration not stated)

Completion:
1. 97.3
2. 100
3. 99.3
4. 100
